System: RARa:RXR (NR concentration 270 nM, RXRa partner concentration 90 nM)
assay-summary: PBM binding z-score (relative to random genomic background probes); higher = stronger binding; sequences stand for … in GC…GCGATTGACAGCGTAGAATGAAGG
Would you kindly list PBM binding z-score for each of these sequences?
Numbers only.

Below: 5 sequences and their reported PBM binding z-score.
[
  {
    "sequence-entry": "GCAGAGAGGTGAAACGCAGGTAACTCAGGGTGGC",
    "endpoint": "PBM binding z-score",
    "test-result": 1.48
  },
  {
    "sequence-entry": "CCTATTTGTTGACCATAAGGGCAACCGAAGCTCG",
    "endpoint": "PBM binding z-score",
    "test-result": 1.35
  },
  {
    "sequence-entry": "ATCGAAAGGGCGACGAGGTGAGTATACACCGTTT",
    "endpoint": "PBM binding z-score",
    "test-result": 0.542
  },
  {
    "sequence-entry": "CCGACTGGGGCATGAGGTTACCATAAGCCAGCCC",
    "endpoint": "PBM binding z-score",
    "test-result": 1.06
  },
  {
    "sequence-entry": "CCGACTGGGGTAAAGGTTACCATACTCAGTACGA",
    "endpoint": "PBM binding z-score",
    "test-result": 3.23
  }
]

I have 6 sequences here; please give me PBM binding z-score for each one.
1. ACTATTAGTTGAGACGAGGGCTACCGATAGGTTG
2. CGTCCTAGGTCATAGGAGGTCAGTGAAGACAGAT
3. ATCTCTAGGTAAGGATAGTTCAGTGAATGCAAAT
4. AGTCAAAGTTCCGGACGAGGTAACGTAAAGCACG
5. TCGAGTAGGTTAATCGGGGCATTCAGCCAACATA
6. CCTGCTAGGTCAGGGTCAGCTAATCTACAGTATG

-0.544
4.21
0.17
0.0687
0.933
3.48

Okay, here is my list. What is PBM binding z-score for each of these?
1. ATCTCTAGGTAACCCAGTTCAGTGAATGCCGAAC
2. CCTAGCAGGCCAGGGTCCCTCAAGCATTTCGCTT
3. TAGCCTAGGTCATTCAGGTGCCAGTATAGAAAGC
4. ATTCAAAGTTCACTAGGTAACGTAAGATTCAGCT
5. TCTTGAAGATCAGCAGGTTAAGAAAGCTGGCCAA
6. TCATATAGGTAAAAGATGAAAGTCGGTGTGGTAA

0.719
-0.227
2.34
2.9
0.104
1.08

Count: 2. Required value per item: PBM binding z-score.
1. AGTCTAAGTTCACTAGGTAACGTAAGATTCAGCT
2. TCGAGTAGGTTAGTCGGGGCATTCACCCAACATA

[1.93, 0.377]

* * *

What PBM binding z-score was measured for each of the following?
Tested on: PPARg:RXRa DBDmut IVT, anti-RXR (DBD mutation: RXRa K156A/R161A, NR concentration 270 nM, RXRa partner concentration 90 nM)
assay-summary: PBM binding z-score (relative to random genomic background probes); higher = stronger binding; sequences stand for … in GC…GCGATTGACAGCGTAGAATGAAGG
Numbers only.

[
  {
    "sequence-entry": "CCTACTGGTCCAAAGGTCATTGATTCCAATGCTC",
    "test-result": 1.53
  },
  {
    "sequence-entry": "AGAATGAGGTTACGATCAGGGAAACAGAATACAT",
    "test-result": 3.35
  },
  {
    "sequence-entry": "CCGACTGGGGCATAAGGCTACCATAAGCCAGCCC",
    "test-result": 2.4
  },
  {
    "sequence-entry": "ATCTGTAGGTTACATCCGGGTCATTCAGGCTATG",
    "test-result": 3.84
  },
  {
    "sequence-entry": "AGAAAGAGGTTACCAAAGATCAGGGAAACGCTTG",
    "test-result": 1.97
  }
]

List reported PBM binding z-score for each of these sequences:
1. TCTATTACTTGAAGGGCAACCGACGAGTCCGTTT
2. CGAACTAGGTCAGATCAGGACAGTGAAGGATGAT
3. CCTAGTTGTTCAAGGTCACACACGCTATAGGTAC
4. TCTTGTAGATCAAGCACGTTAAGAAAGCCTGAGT

2.52
7.59
1.86
1.73

Source: the supplement of paper PMC6555819
